Tested on: RAW-Dual (murine macrophage reporter line)
Assay: IRF reporter (Lucia luciferase) activity fold change vs agonist alone; higher = enhanced IRF activity
Details: modulator concentration 10 µM; agonist: 3'3'-cGAMP 10 ug/mL
MEASUREMENT NAME: IRF reporter
Numbers only.

- COMPOUND: "O=[N+]([O-])c1ccc(C=Nc2sc3c(c2-c2nc4ccccc4s2)CCCC3)cc1"
  IRF reporter: 0.94

Would you mind giving IRF reporter for every compound in the list below?
1. COc1ccc(CNCc2cccc3ccccc23)cc1OC
2. C=CCN1C(=O)C(=C2SC(=S)N(C)C2=O)c2ccccc21
3. Cn1cnc2cc(NCc3nc4ccccc4n3C)ccc21

[0.832, 0.971, 0.955]

Would you mind giving IRF reporter for every compound in the list below?
1. O=C(NN=Cc1ccc([N+](=O)[O-])s1)c1ccc(Br)cc1
2. O=[N+]([O-])c1ccc(CN2c3ccccc3C3=C(CCCC3)C23CCCCC3)cc1
3. CC(C(=O)O)c1ccc2c(c1)Cc1cccnc1O2 (configuration not stated)
4. C[C@H]1[C@@H](OC(=O)CCC(=O)O)O[C@@H]2O[C@]3(C)CC[C@H]4[C@H](C)CC[C@@H]1[C@@]24OO3
5. CCN(C=Nc1sc2c(c1C#N)CC(C)(C)NC2(C)C)CC
6. CCOc1ccc(-c2ccc(=O)n(CCNS(=O)(=O)CCc3ccccc3)n2)cc1

[0.395, 0.951, 0.966, 0.934, 0.969, 1.2]

Would you mind giving IRF reporter for every compound in the list below?
1. CN1CCN(C2=C(Cl)C(=O)N(c3ccc(Cl)c(Cl)c3)C2=O)CC1
2. CC(=O)N=c1sc(S(N)(=O)=O)nn1C [Prestw-802]
3. COc1cc2c(cc1OC)C1C(=O)c3ccc4c(c3OC1CO2)CCC(C)(C)O4 (configuration not stated)

[0.524, 0.986, 0.824]
